TESTED SYSTEM: T1, Human interleukin-18 (recombinant human IL-18) (human, UniProt Q14116 37-193)
T1 construct: also called hIL-18
T1 sequence: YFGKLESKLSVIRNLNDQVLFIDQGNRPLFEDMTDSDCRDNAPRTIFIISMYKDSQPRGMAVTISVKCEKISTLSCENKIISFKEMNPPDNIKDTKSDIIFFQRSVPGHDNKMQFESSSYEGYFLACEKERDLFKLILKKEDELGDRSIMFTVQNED
MEASUREMENT PROTOCOL: ELISA, antibody on plate, human IL-18 captured, detected by 16D10; 37 C, blocking buffer
METRIC NAME: EC50 (ng/mL)
Your answer is read as ng/mL, so omit the unit and give the number.

H1L2 humanised anti-IL-18 antibody (antibody, human IgG1, kappa, V domains shown, Human IgG1 / kappa) VH: QVQLVQSGAEVKKPGASVKVSCKVSGEISTGYYFHWVRQAPGKGLEWMGRIDPEDDSTKYAERFKDRVTMTEDTSTDTAYMELSSLRSEDTAVYYCTTWRIYRDSSGRPFYVMDAWGQGTLVTVSS VL: DIQMTQSPSSVSASVGDRVTITCLASEDIYTYLTWYQQKPGKAPKLLIYGANKLQDGVPSRFSGSGSGTDYTLTISSLQPEDFATYYCLQGSKFPLTFGQGTKLEIKR    3.4

Reported EC50 of H1L3 humanised anti-IL-18 antibody (antibody, human IgG1, kappa, V domains shown, Human IgG1 / kappa) VH: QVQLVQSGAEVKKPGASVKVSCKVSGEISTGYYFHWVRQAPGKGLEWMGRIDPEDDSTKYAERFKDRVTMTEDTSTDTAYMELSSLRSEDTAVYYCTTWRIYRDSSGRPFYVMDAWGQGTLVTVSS VL: DIQMTQSPSSVSASVGDRVTITCLASEDIYTYLTWYQQKPGKAPQLLIYGANKLQDGVPSRFSGSGSGTDYTLTISSLQPEDEGDYYCLQGSKFPLTFGQGTKLEIKR : 3.33

Reported EC50 of H1L1 humanised anti-IL-18 antibody (antibody, human IgG1, kappa, V domains shown, Human IgG1 / kappa) VH: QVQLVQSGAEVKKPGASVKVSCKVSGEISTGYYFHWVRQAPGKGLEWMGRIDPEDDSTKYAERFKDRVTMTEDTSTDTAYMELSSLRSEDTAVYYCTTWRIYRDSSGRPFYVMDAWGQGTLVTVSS VL: DIQMTQSPSSVSASVGDRVTITCLASEDIYTYLTWYQQKPGKAPKLLIYGANKLQDGVPSRFSGSGSGTDFTLTISSLQPEDFATYYCLQGSKFPLTFGQGTKLEIKR : 3.43

Reported EC50 of 2C10 rat-human chimera (chimaeric antibody 2C10c) (antibody, V domains shown, Rat 2C10 V regions joined to human IgG1 and kappa C regions; also called Chimera 2C10; 2C10 Chimera) VH: EVQLQQSGAELVRPGTSVKLSCKVSGEISTGYYFHFVRRRPGQGLEWIGRIDPEDDSTKYAERFKDRATLTAQTSSNTAYLNLSSLTSEDTATYFCTTWRIYRDSSGRPFYVMDAWGQGTLVTVSS VL: DIQMTQSPASLSASLGETVSIECLASEDIYTYLTWYQQKPGKSPQLLIYGANKLQDGVPSRFSGSGSGTQYSLKISGIQPEDEGDYFCLQGSKFPLTFGSGTKLEIKR : 3.79
